Experiment: soluble fraction after stress (log2 fold change); higher = more stays soluble; pooled small domains, quantitative proteomics;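 note: 20 min heating vs room temperature control held 20 min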
Details: stress: 75 degC
Answer each item with its documented soluble fraction (log2).
One number for each entry.

Some entries whose results are on file:
HMRFKPLAEILAAVQTRYAGRVLDVELDRDQAGRNVYEVKLLAADGSRREIHIDAVTGKEVSL: -0.56
HMDSILMPGVVNKELREALAILKNEGIGWADPEYASSTVTRNYVISTDPVEGIELAPGQKVRLVVSLGPKP: -0.326
HMPVNGEFIERIKVMVLENKAKGKKERLTKTRMHQLLQEEGYKGSYSAFTHQVRIIEEELGVNQKEAH: -0.48
HMEISPGDVFKQLPGIGDDLSRRVVESLGIQSLEELESAAHDGRLEQVEGFGERRVQMVRAVLTGMLS: -0.00517

Provide soluble fraction (log2) values for the following items, in order.
1. HMELNKNDLKIIKNISHIYPYFTPVKILQLILSKKFKTIDYNKILKSTSILTTDRSHLYYILNN
2. HMELRIREILESKDIKVSSLAETVGITRANMSNIVNGKSTPSLETLEKIANALGVDITELFA
3. HMTANPSTEEIMARVEAIPLPIKRLPPGQIVQAQTVAATVLRSNPGLDLAKAWKLAYATVTGQE
4. HMEEDPILVAQRFLNIFRQLHIFDQQRREEFNSMILALPPEIRGTFGVLPGGSVLQEYVDELEISKGMA
5. HMNPGAYQVKAGEGLIGLSRRYNVPVDVLASVNNLNTTSSLRVGQTITIPTAAQVNRITQQAQ

[0.0816, -0.432, -0.15, -1.11, 0.216]

---

Assay: soluble fraction after stress (log2 fold change); higher = more stays soluble; pooled small domains, quantitative proteomics
Conditions: stress: 75 degC
Answer each item with its documented soluble fraction (log2).
Answers are plain numbers.

Some entries whose results are on file:
HMQANLPFSELLADVDRGLISDVTIKGDQVSGHYTDGRTFNTFIPPEADLVRRLTEKNVRIAAVPD: -0.113
HMIEEIAVPEILGMQEEEAKAKIEGLGLVFNVTDRVKSNEYEKGEVMYQSVGPDDTTVKSGYPINVTISEG: 0.196
HMSPDLNEVEEKVFRALNGVESMHVNKLGIELNLPVSELFFTLLELEMKNVVKALPGGMYKL: -2.26

Next up:
Entry HMPKTATIVIDLNYADAKEIVENLQTILAGETKDISVAPHPSANQIIASGDRWEVENISTIIKQLDR has what soluble fraction (log2)?
0.26

---

Assay: soluble fraction after stress (log2 fold change); higher = more stays soluble; pooled small domains, quantitative proteomics
Conditions: stress: 75 degC
Answer each item with its documented soluble fraction (log2).
One number for each entry.

HMGDWEKALAQFAAHRLANGSTAFLDEMYPIFERILLQAALNKTGGRKIEAAELLGWGRNTLTRKLKELGF: -2.2

Provide soluble fraction (log2) values for the following items, in order.
1. HMDGNVPSVEGKPLSGAKYILETYGYKTGTVTEVNSEDVPAGIVISQNPARGTTLANGGSVNLQVSLG
2. HMQILNVFSKHGIKPISPQIGDKFDPQLHEAMFEAPVPGTKAGDIIEVSSEGFMLYDRLLRPAHVGVSSN
3. HMKEVDERPWGKYEVLLDAPDVKVKRITVNPGQRLSYQYHEKRAEVWTVVSGILTIILEDDKLFRG

1. 0.645
2. -0.0306
3. 0.17

Provide soluble fraction (log2) values for the following items, in order.
1. HMNENNFIVAMRERLAQFIETSGTSQSRIAKELGVSKSTVSLFLGGTYGGNNQELARNLEQLLSMGAARR
2. HMGETRWTYDDFGNILTEKAAPYSATEFLGKTYTYDTDNRYLKTVTDALGRTTTTLSYDKYGNPLSVMD
3. HMTAVPADVETVTGFTALDRAGLDTLLARLGLAMDLEDLSFLQAYFRDTERRDPTLTEIRVVDTYWSDH
4. HMHSLLDDIPNVGEKRKRILLTHFQSLEEIKAATVEELERLPQINRKAAESIYTFFHSQPIR

1. -1.45
2. 0.115
3. -1.1
4. -0.735

Provide soluble fraction (log2) values for the following items, in order.
1. HMDYQYILVDVKDRIATVTINRPEYSNAFARESYYEIADAMNTLGARDDVGVIVITGAGKHFSAGGDIKRF
2. HMSDTLPRLLWNFQMAKRLDEMNGAEKRRYQLVLIHPQASEKERDYASSFAHQARMLGIEVAIRDS
3. HMGIVTMPGQGSKMRFDFDATGDLPSSTSWRGMFAYANNTKRAYVSTGTTMGGYNGWRQLIAMDEYGNYQT
4. HMKAPPLTDREKEILRWVAAGLQNKEIAHKLGISLATVRNHIHNILEKLDVHSKLEAVSLAFRQGWVS
5. HMGAGLKIGNDHEYANYLEYKVSVEKYAPGAILGEIKQKGIQFNTTISKTTFYRYITDGVFLTITNADLPV
6. HMTSPRRLYALIVEHVGKDGVMHRSDVENVLAKVESEMDVDDLLDQLEINGTIIRRQDGTWQLL
7. HMDGFAEFWSAYPKKVGKGAAEASWRKHRPPLQTVLDAVKRQAESDQWRKDGGQFIPNPATWLNQKRWEDD
8. HMSIQELMNSKDLSSFKVEMLSDEDIAKYKGLLQNSGLTEAQAEQMALQRGLPSSELLKLKARLSGI

1: -0.777; 2: -0.395; 3: 0.0821; 4: -0.356; 5: 0.374; 6: -0.716; 7: -0.0375; 8: 0.118

Entry HMNPFTHEEINLMSIYNAAGTREGLIAALTEMWGYLDAEETELRELADSALAKLRGITDAEYAALELE has what soluble fraction (log2)?
-1.19

---

Experiment: soluble fraction after stress (log2 fold change); higher = more stays soluble; pooled small domains, quantitative proteomics
Conditions: stress: 75 degC
Assay Readout: soluble fraction (log2)

Some entries whose results are on file:
HMKVIETKYNTYVVKSGDTLYSVAKKYGISVTELKEINDLSNNTLSIGQKLLVPATTIIIDE: -0.637
HMYTVRDGDTVFGILNRFGVSLDELLSLNPELSNGLKAGMVLKIK: -0.542

Provide soluble fraction (log2) values for the following items, in order.
1. HMAPLQDENGDLTFSYNGKTYTVNVNSEEDRNSFAEDFNKENGKKFSWFKERAGLQHYVFYDTEM
2. HMGLTRRAQLEVADANLKRLYPGMHQSWVTAIAEYLHSSYWRYINSLEPEYAASIQRVYEQHIDAM
3. HMDTLKDFISGVSIVFENKYSVGDNVTIGDFRGDVIELGMKTTKIRAYTGEVLIIPNHLVEKVINH

1: -0.00699; 2: -0.0229; 3: -1.56

---

Test: soluble fraction after stress (log2 fold change); higher = more stays soluble; pooled small domains, quantitative proteomics
Conditions: stress: 75 degC
Assay Readout: soluble fraction (log2)
Give bare numbers.

Some entries whose results are on file:
HMQDREKNIAEGRDIIEHEFMRLGISLSRYDLDGLASKLNVKAGDDVLAGVGAGDIRVSQIISQLG: -0.0551
HMDSALKDDLNAFVKKLDVESQTLFMRRYFLGESVSSLASRFEMSEDNVGVKLFRIRAKLKKYLTGKGYD: -3.1
HMPGLPLWAFSTRGSAIHTGASFRDGDGLLFGPESRGLPDWLLEEVGQDRVLRLPMRPGSRSLNLSNAV: -0.577
HMSEKIDINNSNELELKQLPLTNEQIKSLIEFRRLHGEIQNIYELKNIDFFNIEKVHELKAHIEIKKII: -1.03
HMSVADNALSRQAIESRIALFIQNEDPNHPRSDADIQKELAQAGVVISRRAITKYRNHLHIPSASLRRR: -1.16
HMFFFILNKGAKSGGEITHAVLNGSIVSKPAGWDAFHGLVLAKEKLSSEEIQRQMKELGVEMEIVPL: -2.4
HMRQIRELFRLKFGSLLPTSDRQIAAQLGVARSTVAEYLERARAAGLSWPLPLDLSDADLEERLFA: -3.08
HMKRVPFAFAGDMLRWAAWLYHVEKRTQNEIAEELEVSRQTVANYLSEAMSQGLVQVQLRSDIIE: -1.98
HMNKEVDLPNFVGMTKENAQAQADKIKIKLEFEEEYSSDVEEGKIISQNPEYKENYKIKEKSTVSLKI: 0.312
HMAASGTVNSGGDPLRVRADPNTSSQILTKLSDGTQVEVLEQAENGWYKIAHEGISGFVSGEYLVVH: 0.0197

Provide soluble fraction (log2) values for the following items, in order.
1. HMPKHHIESVIPENFAGERLDKVLAVLWGTFSRAQLTRWIRDGSLLLDGHKVKPNTKVDGSEKIVLQAEVA
2. HMGLAGVQSDVKVSFDGDLLVVTSDIARSFNLFAVDGRLIRSVNLIAGRNEIRGLERGFYLAEKQKIFV
3. HMLPQGKGTAMWLADHLAAASVTLDAGARKLLEDTLGEDMSRLPGVLRVLEATFGSDAGRLSAEDIEPFL
4. HMKLEEITIIVPSLRLDNFVSDLARTSRSKAVQIIDSERVFINGQNETKASKQVKLGDVITSA
5. HMDAGLAEIIRSFEDNLGGFPPAAREDLLGWREIFTDDLILLAIKKAALAGVRKWSYVNGILKVWKNEGVR
6. HMLPTVSITGHIFIRSGSPLNRIFVGEKIYHVGDHIDRDWVIESIGIDTLTIRSGTLSTQLPL

1. -1.27
2. -1.93
3. 0.075
4. -0.211
5. -2.23
6. -2.99

Entry HMPFNREYWIEQLLKEVGLMGTPYAELDKHEVELDSPTGRASGFKVNAKTYVDQQLLFIENEYNNQPE has what soluble fraction (log2)?
-0.533

Where do these numbers come from? They come from the domain aggregation screens of Martell et al. (2025).
